B1: Pistol ribozyme (parent)
chain: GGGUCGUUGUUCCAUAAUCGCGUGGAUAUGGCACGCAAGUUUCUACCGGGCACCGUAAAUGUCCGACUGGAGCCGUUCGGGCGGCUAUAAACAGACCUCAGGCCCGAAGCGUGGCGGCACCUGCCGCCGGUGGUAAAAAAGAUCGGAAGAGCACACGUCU

Variants of: B1
ASSAY_NAME: aptazyme ON/OFF ratio, guanine; higher = stronger switching; co-transcriptional cleavage with and without guanine

>  <CHANGE>
U7C U10G C12G C13U

>  <aptazyme ON/OFF ratio>
1.18

$$$$
>  <CHANGE>
U7C U8G G9C U10G U11C C12A C13U

>  <aptazyme ON/OFF ratio>
1.35

$$$$
>  <CHANGE>
U8C G9C U10G U11A C12G C13U

>  <aptazyme ON/OFF ratio>
1.11

$$$$
>  <CHANGE>
U8G U10A U11G C12U C13U

>  <aptazyme ON/OFF ratio>
1.12

$$$$
>  <CHANGE>
U7C U8A U10C U11C C12G

>  <aptazyme ON/OFF ratio>
1.25

$$$$
>  <CHANGE>
U7C U8G G9U U10G C12G C13U

>  <aptazyme ON/OFF ratio>
1.07

$$$$
>  <CHANGE>
U8A G9C U10G U11C C12G

>  <aptazyme ON/OFF ratio>
1.14

$$$$
>  <CHANGE>
U7A U8C U11G C12U C13U

>  <aptazyme ON/OFF ratio>
1.1

$$$$
>  <CHANGE>
U8G G9C U10A U11C C12U C13G

>  <aptazyme ON/OFF ratio>
1.06

$$$$
>  <CHANGE>
U7C U8C U10A U11G C12U

>  <aptazyme ON/OFF ratio>
1.25

$$$$
>  <CHANGE>
U8A G9A U10C U11C C12U C13A

>  <aptazyme ON/OFF ratio>
1.04

$$$$
>  <CHANGE>
U8A G9A

>  <aptazyme ON/OFF ratio>
1.91

$$$$
>  <CHANGE>
U7A G9A U10C U11C C12G C13A

>  <aptazyme ON/OFF ratio>
1.07

$$$$
>  <CHANGE>
U7A G9C U11G C12A C13U

>  <aptazyme ON/OFF ratio>
1.29

$$$$
>  <CHANGE>
U8C U10C U11G C12U C13G

>  <aptazyme ON/OFF ratio>
1.28

$$$$
>  <CHANGE>
U7G U8A G9A U10A C13U

>  <aptazyme ON/OFF ratio>
1.11

$$$$
>  <CHANGE>
U7G C12A C13G

>  <aptazyme ON/OFF ratio>
1.11

$$$$
>  <CHANGE>
U7A U8A G9A C12U C13U

>  <aptazyme ON/OFF ratio>
1.17

$$$$
>  <CHANGE>
U7C U8G G9U U10A U11A

>  <aptazyme ON/OFF ratio>
1.34

$$$$
>  <CHANGE>
U8G G9U U11C C12U

>  <aptazyme ON/OFF ratio>
1.04

$$$$
>  <CHANGE>
U8C G9A U10G U11G C12U C13G

>  <aptazyme ON/OFF ratio>
1.1

$$$$
>  <CHANGE>
U7G U8G G9A U11A C12U C13U

>  <aptazyme ON/OFF ratio>
1.22

$$$$
>  <CHANGE>
U7G G9C C12G C13U

>  <aptazyme ON/OFF ratio>
1.43

$$$$
>  <CHANGE>
U8G U10C U11C

>  <aptazyme ON/OFF ratio>
1.19

$$$$
>  <CHANGE>
U8G G9C U11G C12U

>  <aptazyme ON/OFF ratio>
1.22

$$$$
>  <CHANGE>
U7A U8A G9U U10G U11G C12G C13A

>  <aptazyme ON/OFF ratio>
1.21

$$$$
>  <CHANGE>
G9U C12A C13A

>  <aptazyme ON/OFF ratio>
1.63

$$$$
>  <CHANGE>
U7A G9C U10A C12A

>  <aptazyme ON/OFF ratio>
1.11

$$$$
>  <CHANGE>
U7G U8A G9C U10G C12G C13A

>  <aptazyme ON/OFF ratio>
1.06

$$$$
>  <CHANGE>
U7A U8G U10A C13U

>  <aptazyme ON/OFF ratio>
1.12

$$$$
>  <CHANGE>
U8C G9C U10C U11A C12G C13A

>  <aptazyme ON/OFF ratio>
1.06

$$$$
>  <CHANGE>
U7A U8A G9A U11C C12G C13A

>  <aptazyme ON/OFF ratio>
1.1

$$$$
>  <CHANGE>
U7C U8C G9A U10A U11A C13G

>  <aptazyme ON/OFF ratio>
1.2

$$$$
>  <CHANGE>
U7A U8C U10A U11C

>  <aptazyme ON/OFF ratio>
1.03

$$$$
>  <CHANGE>
U7G U8C G9U U10C U11C C13A

>  <aptazyme ON/OFF ratio>
1.34

$$$$
>  <CHANGE>
U7A U11G C12A C13U

>  <aptazyme ON/OFF ratio>
1.25

$$$$
>  <CHANGE>
U8C G9C C12G

>  <aptazyme ON/OFF ratio>
1.19

$$$$
>  <CHANGE>
U7C U8G U10C C12U C13A

>  <aptazyme ON/OFF ratio>
1.61

$$$$
>  <CHANGE>
U7A U8A U10A

>  <aptazyme ON/OFF ratio>
1.05

$$$$
>  <CHANGE>
U7G U8G U10A U11C C12U C13A

>  <aptazyme ON/OFF ratio>
1.42

$$$$
>  <CHANGE>
U7A U8A U10G U11C C12U C13U

>  <aptazyme ON/OFF ratio>
1.47

$$$$
>  <CHANGE>
U7G U8A G9U U10A U11A C12G C13U

>  <aptazyme ON/OFF ratio>
1.06

$$$$
>  <CHANGE>
U7A G9A U10A U11G C12G C13A

>  <aptazyme ON/OFF ratio>
1.32

$$$$
>  <CHANGE>
U7A U8A U10C U11G C12U C13A

>  <aptazyme ON/OFF ratio>
1.23

$$$$
>  <CHANGE>
U7A G9C U10G U11A C12G C13A

>  <aptazyme ON/OFF ratio>
1.07

$$$$
>  <CHANGE>
U7G U10C U11A C12A C13A

>  <aptazyme ON/OFF ratio>
1.17

$$$$
